Biological target: T1, GLP-1 receptor, endogenous in RINm5f cells (rat (RIN-m5F are called rat pancreas …, UniProt P32301 22-463))
T1 sequence (looked up): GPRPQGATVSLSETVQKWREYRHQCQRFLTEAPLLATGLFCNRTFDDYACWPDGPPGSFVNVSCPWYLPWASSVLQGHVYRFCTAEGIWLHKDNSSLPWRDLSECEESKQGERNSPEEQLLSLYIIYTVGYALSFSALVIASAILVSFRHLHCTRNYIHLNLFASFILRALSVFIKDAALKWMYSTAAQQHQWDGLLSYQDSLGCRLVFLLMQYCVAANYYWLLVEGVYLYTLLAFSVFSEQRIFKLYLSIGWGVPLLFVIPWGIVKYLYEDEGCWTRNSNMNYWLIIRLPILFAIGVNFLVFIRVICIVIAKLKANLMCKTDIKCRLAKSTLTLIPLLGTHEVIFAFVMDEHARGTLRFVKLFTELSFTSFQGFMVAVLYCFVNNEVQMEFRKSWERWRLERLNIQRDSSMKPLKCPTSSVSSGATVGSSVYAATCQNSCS
Test: cell-based or functional assay
Where no end group is shown, it is not given here.
Would you mind labelling by cAMP, CYCLASE GLP/GIP/CT (RIN) EC50? At or over 1000 pM is YES, under is NO.

INSERT INTO assay_data (binder, category) VALUES
  ('HGEGTFTSDLSKQLEEEAVRLFIEWLKNPGGKEIIS (tested as C-terminal acid (-OH)) [Cmpd 5296]', 'NO'),
  ('HGEGTFTSDLVKILEAEAVRKFIEFLKN-NH2 [Cmpd 5052]', 'YES'),
  ('HGEGTFTSDVTEYLEEEAVRLFIEWLKQGGPSSGAPPPS-NH2 [Cmpd 5129]', 'YES'),
  ('HGEGTYTNDVSSYLEGQAARLFIEWLQGGPSSGAPPPS-NH2 (also: table prints an unexplained underscore after L26) [Cmpd 5183]', 'NO'),
  ('HGEGTFTSDLSKQLEEEAVRLFIEWLKNGKPGGKKIRYS [Cmpd 5451]', 'NO'),
  ('HGEGTFTSDLSKQVQEEAVRLFVEFLKN-NH2 [Cmpd 5035]', 'YES'),
  ('HGEGTFTSDLSKQLEEKAAKEFIEWLIQGGPSKEIIS [Cmpd 5101]', 'NO'),
  ('HGEGTFTSDVTQQLEEEAVRLFIEWLKQGGPSSGAPPPS-NH2 [Cmpd 5099]', 'YES');
